- testTarget: T1, EsCas13d, nuclease-dead (Eubacterium siraeum, UniProt B0MS50, R295A;H300A;R849A;H854A)
- T1 sequence: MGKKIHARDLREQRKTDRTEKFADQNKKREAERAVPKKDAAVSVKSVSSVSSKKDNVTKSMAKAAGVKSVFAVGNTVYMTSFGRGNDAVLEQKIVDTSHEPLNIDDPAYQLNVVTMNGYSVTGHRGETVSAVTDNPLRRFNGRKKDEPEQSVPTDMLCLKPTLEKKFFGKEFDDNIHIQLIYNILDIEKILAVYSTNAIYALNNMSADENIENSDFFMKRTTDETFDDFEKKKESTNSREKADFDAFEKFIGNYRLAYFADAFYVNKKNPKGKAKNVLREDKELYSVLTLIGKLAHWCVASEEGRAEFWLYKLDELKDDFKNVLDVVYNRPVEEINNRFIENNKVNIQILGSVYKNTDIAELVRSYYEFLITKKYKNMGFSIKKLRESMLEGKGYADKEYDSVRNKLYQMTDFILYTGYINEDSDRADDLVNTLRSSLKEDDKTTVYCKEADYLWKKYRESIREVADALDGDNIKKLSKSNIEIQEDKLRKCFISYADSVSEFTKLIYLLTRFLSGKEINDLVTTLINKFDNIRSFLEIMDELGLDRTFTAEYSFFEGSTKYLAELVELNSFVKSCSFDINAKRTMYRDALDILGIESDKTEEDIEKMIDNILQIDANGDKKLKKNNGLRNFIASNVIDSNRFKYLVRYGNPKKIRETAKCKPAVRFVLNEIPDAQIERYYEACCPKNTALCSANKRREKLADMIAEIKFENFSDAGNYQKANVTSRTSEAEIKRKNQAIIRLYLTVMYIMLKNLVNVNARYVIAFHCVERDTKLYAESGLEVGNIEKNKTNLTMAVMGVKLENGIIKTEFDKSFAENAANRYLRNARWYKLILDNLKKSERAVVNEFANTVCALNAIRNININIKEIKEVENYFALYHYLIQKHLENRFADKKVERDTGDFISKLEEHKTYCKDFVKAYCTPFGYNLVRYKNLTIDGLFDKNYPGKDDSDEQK
- assayOverview: crRNA (strand 1, pre-loaded); Mg2+; 40 mM Tris-HCl pH 7.5, 150 mM NaCl, 6 mM MgCl2, 1 mM DTT, 0.1% Tween-20, 0.2 mg/ml BSA; 25 C; 10 min per concentration, then washed
- conditionDetails: tags: His6-TwinStrep-SUMO cleaved; N-terminal SNAP kept (SNAP-Surface 488); label: 3' end held by stalled T7 RNA polymerase
Can you tell me Kd for the items I'm about to list?
One number for each entry, in nM.

Example entries begin here.
{"binder": "target 1 insU 3' of 7,insG 3' of 1 (mixed) RNA 1: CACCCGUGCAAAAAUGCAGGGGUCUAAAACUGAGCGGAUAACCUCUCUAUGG RNA 2: GGGAAUGGAUCCACAUCUACGAAUUCGUACCAUAGAGAGGUUAUCUCGCUCAGCCGAGAUCGGAAGAGCACACGU", "Kd / nM": 13.8}
{"binder": "target 2 MT 5'PFS UAA 3'PFS ACU (mixed) RNA 1: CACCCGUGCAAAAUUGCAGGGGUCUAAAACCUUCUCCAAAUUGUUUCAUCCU RNA 2: GGGAAUGGAUCCACAUCUACGAAUUCUAAAGGAUGAAACAAUUUGGAGAAGACUAGAUCGGAAGAGCACACGU", "Kd / nM": 9}
{"binder": "target 2 MT 5'PFS CAU 3'PFS ACU (mixed) RNA 1: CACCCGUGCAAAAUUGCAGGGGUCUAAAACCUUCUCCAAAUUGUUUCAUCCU RNA 2: GGGAAUGGAUCCACAUCUACGAAUUCCAUAGGAUGAAACAAUUUGGAGAAGACUAGAUCGGAAGAGCACACGU", "Kd / nM": 9}

Please turn your attention to the following entry.
Per the record, target 2 MT 5'PFS GUA 3'PFS ACG (mixed) RNA 1: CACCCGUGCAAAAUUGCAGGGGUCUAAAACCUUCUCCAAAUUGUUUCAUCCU RNA 2: GGGAAUGGAUCCACAUCUACGAAUUCGUAAGGAUGAAACAAUUUGGAGAAGACGAGAUCGGAAGAGCACACGU has Kd of 10.6
